Would you mind telling me the reported activity change, negative = growth inhibition of each entry?
Experiment: qHTS for Inhibitors of human tyrosyl-DNA phosphodiesterase 1 (TDP1): qHTS in cells in presence of CPT; note: % is set by controls: 0 for no effect and ±100 for the full control effect; nearly all actives have a fitted effect of over 55% in size
Conditions: chicken DT40 Tdp1-/-;hTDP1 cells + 20 nM CPT, ATP luminescence, 48 h; series mostly up to 46.2 µM
Hit rate of the full screen: of about 420,000 compounds, about 50,000 (12%) were called active. Not shown: some 26% with an inconclusive outcome. The sample holds actives, similar compounds and a random draw of the others, so the mix is not that of the screen.

Looking for the measured activity change, negative = growth inhibition of COC(=O)[C@@H]1C[C@H](NC(=O)c2ccccc2C(F)(F)F)CN1Cc1cccc(O)c1 , can you help?
9.61% [at 9.04 µM] (inactive)

Looking for the measured activity change, negative = growth inhibition of COc1ccccc1-c1ccnc(-n2ncc(C(=O)NCCc3ccncc3)c2C)n1 , can you help?
39.7% [at 9.04 µM] (inactive)

Looking for the measured activity change, negative = growth inhibition of COc1ccc(CCNc2ncnc3sc(C(=O)N4CCCC4)c(C)c23)cc1OC , can you help?
3.59% [at 9.04 µM] (inactive)

Looking for the measured activity change, negative = growth inhibition of COc1ccc(CN2CCC3(CCC(CNC(=O)c4ccco4)O3)CC2)cc1OC (centres undefined) , can you help?
-1.91% [at 9.04 µM] (inactive)

Looking for the measured activity change, negative = growth inhibition of Cc1cccc(CNC(=O)c2cnn(-c3nccc(-c4ccccc4F)n3)c2C2CC2)n1 , can you help?
-0.952% [at 9.04 µM] (inactive)

Looking for the measured activity change, negative = growth inhibition of C/C=C(\C)C(=O)O[C@H]1CC(C)=C2C(=O)C=C(C)C2[C@@H]2OC(=O)[C@@](C)(OC(=O)C=C(C)C)C21 (some centres undefined) , can you help?
-19.3% [at 9.04 µM] (inactive)

Looking for the measured activity change, negative = growth inhibition of CCC1CN(CCNC(=O)c2ccsc2)Cc2cc(OC)ccc2O1 (centres undefined) , can you help?
9.24% [at 9.04 µM] (inactive)

Looking for the measured activity change, negative = growth inhibition of C[C@@H]1CN(Cc2ccc3c(c2)CN(Cc2ccc(Oc4ncccn4)cc2)CCO3)C[C@H](C)O1 , can you help?
-11.8% [at 9.04 µM] (inactive)

Looking for the measured activity change, negative = growth inhibition of COc1ccccc1C1CN(CCNC(=O)C2=CCCC2)Cc2ccccc2O1 (centres undefined) , can you help?
-9.51% [at 9.04 µM] (inactive)

meta.source: PubChem BioAssay AID686979
